Numbers sourced from patent US12624044B2.

MEASURED_TARGET: SMARCA2 (Homo sapiens, UniProt P51531)
Sequence (P51531 whole entry): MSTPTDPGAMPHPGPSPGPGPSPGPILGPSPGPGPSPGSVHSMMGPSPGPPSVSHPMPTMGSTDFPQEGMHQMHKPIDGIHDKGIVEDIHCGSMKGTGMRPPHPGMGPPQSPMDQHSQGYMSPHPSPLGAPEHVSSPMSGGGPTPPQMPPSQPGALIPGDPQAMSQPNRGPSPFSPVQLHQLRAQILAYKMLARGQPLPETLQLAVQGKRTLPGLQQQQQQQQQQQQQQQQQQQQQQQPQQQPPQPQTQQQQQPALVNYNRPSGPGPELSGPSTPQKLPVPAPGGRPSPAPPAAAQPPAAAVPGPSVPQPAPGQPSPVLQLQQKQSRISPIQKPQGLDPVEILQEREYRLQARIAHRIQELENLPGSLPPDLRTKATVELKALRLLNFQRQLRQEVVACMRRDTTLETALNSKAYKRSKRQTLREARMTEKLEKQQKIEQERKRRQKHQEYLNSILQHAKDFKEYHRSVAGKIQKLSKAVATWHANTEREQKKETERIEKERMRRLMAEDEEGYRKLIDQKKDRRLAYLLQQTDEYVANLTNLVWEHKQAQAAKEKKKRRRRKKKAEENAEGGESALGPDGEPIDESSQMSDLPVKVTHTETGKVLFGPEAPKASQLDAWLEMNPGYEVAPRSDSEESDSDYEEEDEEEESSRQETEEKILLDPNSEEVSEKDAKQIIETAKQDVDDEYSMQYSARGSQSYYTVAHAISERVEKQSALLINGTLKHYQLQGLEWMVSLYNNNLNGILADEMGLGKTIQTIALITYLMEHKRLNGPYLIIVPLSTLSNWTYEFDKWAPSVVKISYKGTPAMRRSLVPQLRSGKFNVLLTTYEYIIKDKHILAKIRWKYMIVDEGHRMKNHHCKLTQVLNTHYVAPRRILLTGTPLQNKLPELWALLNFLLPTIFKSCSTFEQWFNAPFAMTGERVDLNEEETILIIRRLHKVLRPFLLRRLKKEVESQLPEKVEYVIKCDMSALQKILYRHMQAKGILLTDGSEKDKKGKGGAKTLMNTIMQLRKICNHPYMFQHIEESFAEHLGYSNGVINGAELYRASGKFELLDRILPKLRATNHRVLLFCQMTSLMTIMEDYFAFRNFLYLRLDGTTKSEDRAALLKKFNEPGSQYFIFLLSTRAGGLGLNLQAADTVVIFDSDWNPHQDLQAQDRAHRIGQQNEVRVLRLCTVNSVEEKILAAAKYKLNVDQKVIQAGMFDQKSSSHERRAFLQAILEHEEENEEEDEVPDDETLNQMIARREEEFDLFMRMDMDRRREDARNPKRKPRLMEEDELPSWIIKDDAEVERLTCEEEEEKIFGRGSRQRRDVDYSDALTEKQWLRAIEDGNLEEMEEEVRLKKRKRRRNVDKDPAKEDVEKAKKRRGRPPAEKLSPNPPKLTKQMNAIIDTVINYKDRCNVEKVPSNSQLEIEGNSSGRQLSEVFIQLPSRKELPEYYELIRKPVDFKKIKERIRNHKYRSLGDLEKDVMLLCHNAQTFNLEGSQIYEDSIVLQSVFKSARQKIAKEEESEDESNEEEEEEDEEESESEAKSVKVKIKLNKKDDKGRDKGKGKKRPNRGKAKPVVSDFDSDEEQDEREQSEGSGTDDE
ASSAY_EXPLANATION: MSD SMARCA2 degradation in A549 cell line
Assay type: cell-based
MEASUREMENT_SETUP: A549, A549 cells, 24 h
I'd appreciate it if you could supply Dmax values for the items below.

The recorded Dmax for entry Nc1nnc(-c2ccccc2O)cc1N1CC2CCC(C1)N2c1ncc(C2CCN(CCCCCNC(=O)COc3ccc4c(c3)CCCN4C(=O)CCl)CC2)cn1 equals < 50%

The recorded Dmax for entry Cc1ncsc1-c1ccc(CNC(=O)[C@@H]2C[C@@H](O)CN2C(=O)[C@@H](NC(=O)c2ccc(N3CCC(n4cc(-c5cc(-c6ccccc6O)nnc5N)cn4)CC3)cc2)C(C)(C)C)cc1 equals < 50%

The recorded Dmax for entry Cc1ncsc1-c1ccc(CNC(=O)[C@@H]2C[C@@H](O)CN2C(=O)[C@@H](NC(=O)CCN(C)Cc2ccc(N3CCN(c4cc(-c5ccccc5O)nnc4N)CC3)cc2)C(C)(C)C)cc1 equals < 50%

The recorded Dmax for entry Cc1ncsc1-c1ccc(CNC(=O)[C@@H]2C[C@@H](O)CN2C(=O)[C@@H](NC(=O)CN2CCC(c3cnc(N4C5CCC4CN(c4cc(-c6ccccc6O)nnc4N)C5)nc3)CC2)C(C)(C)C)c(C(F)(F)F)c1 equals 70 to 90%

The recorded Dmax for entry Cc1ncsc1-c1ccc(CNC(=O)[C@@H]2C[C@@H](O)CN2C(=O)[C@@H](NC(=O)[C@H](C)N2CCC(c3cnc(N4C5CCC4CN(c4cc(-c6ccccc6O)nnc4N)C5)nc3)CC2)C(C)(C)C)cc1 equals < 50%

The recorded Dmax for entry Cc1ncsc1-c1ccc(CNC(=O)[C@@H]2C[C@@H](O)CN2C(=O)[C@@H](NC(=O)COCC#Cc2cnc(N3C4CCC3CN(c3cc(-c5ccccc5O)nnc3N)C4)nc2)C(C)(C)C)cc1 equals > 90%

The recorded Dmax for entry Cc1ncsc1-c1ccc(CNC(=O)[C@@H]2C[C@@H](O)CN2C(=O)[C@@H](NC(=O)C[C@H]2C[C@H](N3CCC(c4cnc(N5C6CCC5CN(c5cc(-c7ccccc7O)nnc5N)C6)nc4)CC3)C2)C(C)(C)C)cc1 equals > 90%

The recorded Dmax for entry Cc1ncsc1-c1ccc(CNC(=O)[C@@H]2C[C@@H](O)CN2C(=O)[C@@H](NC(=O)[C@H]2CC[C@@H](N3CCC(c4cnc(N5C6CCC5CN(c5cc(-c7ccccc7O)nnc5N)C6)nc4)CC3)CC2)C(C)(C)C)cc1 equals 70 to 90%

The recorded Dmax for entry Cc1ncsc1-c1ccc(C2(NC(=O)[C@@H]3C[C@@H](O)CN3C(=O)[C@@H](NC(=O)[C@H]3CC[C@H](c4cnc(N5C6CCC5CN(c5cc(-c7ccccc7O)nnc5N)C6)nc4)CC3)C(C)(C)C)CC2)cc1 equals > 90%

The recorded Dmax for entry NCC#Cc1nccc(N2C3CCC2CN(c2cc(-c4ccccc4O)nnc2N)C3)n1 equals < 50%

###

MEASURED_TARGET: SMARCA2 (Homo sapiens, UniProt P51531)
ASSAY_EXPLANATION: MSD SMARCA2 degradation in NCI-H1299 cell line (24 h)
Type: cell-based
Set-up: HC: NCI-H1299 cells treated with DMSO; host or cells: NCI-H1299
MEASUREMENT_SETUP: NCI-H1299, NCI-H1299 cells
Procedure: Example 32. MSD SMARCA2 Degradation in […] Cell Line Cell Culture: Cells were cultured in exponential growth phase. Compound Preparation and Treatment: NCI-H1299 cells were seeded into the 96-well plate at 4.0*10^4 cells per 100 ul per well. […] MSD Procedure: The MSD plate was coated with 40 ul cell lysate and incubated at 4° C. overnight. […] MSD plate was washed 3 times with 150 ul 1×TBST per well and 2×MSD reading buffer was added, 150 ul per well, and diluted from 4× with water. […]
I'd appreciate it if you could supply Dmax values for the items below.

The recorded Dmax for entry Cc1ncsc1-c1ccc(CNC(=O)[C@@H]2C[C@@H](O)CN2C(=O)[C@@H](NC(=O)CN2CCC(c3nccc(N4C5CCC4CN(c4cc(-c6ccccc6O)nnc4N)C5)n3)CC2)C(C)(C)C)cc1 equals < 50%

The recorded Dmax for entry O=C1CCC(N2C(=O)c3cccc(OCCCCc4cn(CCCc5cccc(N6C[C@H]7C[C@@H]6CN7/C=C/C(=O)c6ccccc6O)n5)nn4)c3C2=O)C(=O)N1 (some centres unmarked) equals < 50%

The recorded Dmax for entry Cn1c(=O)n(C2CCC(=O)NC2=O)c2cccc(CCCOCCCCN3CCN(Cc4ccc(-c5cc(-c6ccccc6O)nnc5N)cc4)CC3)c21 (centres unmarked) equals 50 to 70%

The recorded Dmax for entry Cn1c(=O)n(C2CCC(=O)NC2=O)c2ccc(C#CCCCCCCc3cn(Cc4cccc(N5C[C@H]6C[C@@H]5CN6/C=C/C(=O)c5ccccc5O)n4)nn3)cc21 (some centres unmarked) equals < 50%

The recorded Dmax for entry Cn1c(=O)n(C2CCC(=O)NC2=O)c2ccc(CCCN3CCO[C@@H](CNCc4ccc(N5CCN(c6cc(-c7ccccc7O)nnc6N)CC5)cc4)C3)cc21 (some centres unmarked) equals 50 to 70%

The recorded Dmax for entry O=C1CCC(N2C(=O)c3cccc(OCCCCc4cn(Cc5cccc(N6C[C@H]7C[C@@H]6CN7/C=C/C(=O)c6ccccc6O)n5)nn4)c3C2=O)C(=O)N1 (some centres unmarked) equals > 90%

The recorded Dmax for entry Cn1c(=O)n(C2CCC(=O)NC2=O)c2ccc(CN3CCCC(n4cc(-c5cc(-c6ccccc6O)nnc5N)cn4)C3)cc21 (centres unmarked) equals 70 to 90%

The recorded Dmax for entry Cn1c(=O)n(C2CCC(=O)NC2=O)c2ccc(CCCCCCCOc3cccc(CN4CCN(c5cc(-c6ccccc6O)nnc5N)CC4)c3)cc21 (centres unmarked) equals 70 to 90%

The recorded Dmax for entry Cn1c(=O)n(C2CCC(=O)NC2=O)c2cccc(C#CCCCCCCc3cn(Cc4cccc(N5C[C@H]6C[C@@H]5CN6/C=C/C(=O)c5ccccc5O)n4)nn3)c21 (some centres unmarked) equals < 50%

The recorded Dmax for entry Cn1c(=O)n(C2CCC(=O)NC2=O)c2cccc(CCCOCCOCCOCCOCCN3CCN(Cc4ccc(-c5cc(-c6ccccc6O)nnc5N)cc4)CC3)c21 (centres unmarked) equals < 50%

The recorded Dmax for entry Cn1c(=O)n(C2CCC(=O)NC2=O)c2ccc(CCCCCCCc3cnc(N4C5CCC4CN(c4cc(-c6ccccc6O)nnc4N)C5)nc3)cc21 (centres unmarked) equals > 90%

The recorded Dmax for entry Cn1c(=O)n(C2CCC(=O)NC2=O)c2ccc(CC(=O)N3CCN(Cc4cnc(N5C6CCC5CN(c5cc(-c7ccccc7O)nnc5N)C6)nc4)CC3)cc21 (centres unmarked) equals > 90%

The recorded Dmax for entry Cn1c(=O)n(C2CCC(=O)NC2=O)c2ccc(CCCCCCCCc3cccc(CN4CCN(c5cc(-c6ccccc6O)nnc5N)CC4)c3)cc21 (centres unmarked) equals < 50%

The recorded Dmax for entry Cn1c(=O)n(C2CCC(=O)NC2=O)c2cccc(CCCOCCCN3CCN(Cc4ccc(-c5cc(-c6ccccc6O)nnc5N)cc4)CC3)c21 (centres unmarked) equals 70 to 90%

The recorded Dmax for entry Cn1c(=O)n(C2CCC(=O)NC2=O)c2cccc(CCCCCN3CCC[C@@H](Cn4cc(-c5cc(-c6ccccc6O)nnc5N)cn4)C3)c21 (some centres unmarked) equals 70 to 90%

The recorded Dmax for entry Cn1c(=O)n(C2CCC(=O)NC2=O)c2ccc(CCCCCN3CCC[C@@H](Cn4cc(-c5cc(-c6ccccc6O)nnc5N)cn4)C3)cc21 (some centres unmarked) equals 50 to 70%

The recorded Dmax for entry COc1cc(C(=O)NCCCCCCCNCc2ccc(N3CCN(c4cc(-c5ccccc5O)nnc4N)CC3)cc2)ccc1NC(=O)[C@@H]1N[C@@H](CC(C)(C)C)[C@](C#N)(c2ccc(Cl)cc2F)[C@H]1c1cccc(Cl)c1F equals < 50%

The recorded Dmax for entry Cc1ncsc1-c1ccc(CNC(=O)[C@@H]2C[C@@H](O)CN2C(=O)[C@@H](NC(=O)CCCCN2CCC[C@@H](Cn3cc(-c4cc(-c5ccccc5O)nnc4N)cn3)C2)C(C)(C)C)cc1 equals < 50%

The recorded Dmax for entry Cn1c(=O)n(C2CCC(=O)NC2=O)c2ccc(CNCCCCCCc3cn(Cc4cccc(N5C[C@H]6C[C@@H]5CN6/C=C/C(=O)c5ccccc5O)n4)nn3)cc21 (some centres unmarked) equals < 50%

The recorded Dmax for entry Cc1ncsc1-c1ccc(CNC(=O)[C@@H]2C[C@@H](O)CN2C(=O)[C@@H](NC(=O)CCCCCCCN(C)Cc2ccc(N3CCN(c4cc(-c5ccccc5O)nnc4N)CC3)cc2)C(C)(C)C)cc1 equals 70 to 90%

The recorded Dmax for entry Cn1c(=O)n(C2CCC(=O)NC2=O)c2ccc(CCCCc3cn(Cc4cccc(N5C[C@H]6C[C@@H]5CN6/C=C/C(=O)c5ccccc5O)n4)nn3)cc21 (some centres unmarked) equals < 50%

The recorded Dmax for entry Cc1ncsc1-c1ccc(CNC(=O)[C@@H]2C[C@@H](O)CN2C(=O)[C@@H](NC(=O)CCCCCN2CCC(n3cc(-c4cc(-c5ccccc5O)nnc4N)cn3)CC2)C(C)(C)C)cc1 equals 50 to 70%

The recorded Dmax for entry Cn1c(=O)n(C2CCC(=O)NC2=O)c2cccc(CCCOc3cccc(CN4CCN(c5cc(-c6ccccc6O)nnc5N)CC4)c3)c21 (centres unmarked) equals < 50%
